Please provide measured melting point for the entries that follow.

Name the reported melting point value associated with the compound CCC(CC)COc1ccc(-n2cc(C(=O)O)cn2)cc1C#N
180 to 182 °C

Try the compound O=C(Nc1ccc(OC(F)(F)F)cc1)N[C@H]1CC[C@@H](Oc2ccc(C(=O)O)cc2)CC1
210 to 212 °C

Thanks! And CCCN1CCC(Cc2ccc3c(c2)c(Cc2ccc(C(=O)NS(=O)(=O)c4ccccc4C)cc2OC)cn3CCC)C1=O (centres undefined) ?
98 to 115 °C

COc1ccc(C2CNC(=O)NC2)cc1OC(F)F , same question.
215 to 216 °C

---

Please go through the items and note down their melting point.

For the compound shown here, COc1cccc(CNC(=O)c2nc3ccc(F)c(OCCc4ccc(-n5cn[nH]c5=O)cc4)c3c(=O)[nH]2)c1 , give the reported melting point.
196 to 198 °C

Then this compound: Cc1noc(NC(=O)N2CCN(c3cc(-c4cccc(F)c4F)ncn3)CC2)c1C
210 to 211 °C

Same question for O=C1Nc2ccc(Cl)c(Cl)c2C(=O)N2CCC[C@@H]12 please.
203 to 205 °C

What about this compound? CC1(C)COc2cc3c(cc21)C1(CO3)C(=O)Nc2ccccc21 (stereo not given)
95 to 100 °C

Another compound to look at: CC(C)Nc1nc2c(F)c(F)c(F)cc2n1[C@@H]1O[C@H](C)[C@@H](O)[C@H]1O
148 to 151 °C

Also, CCOC(=O)c1cc(Br)c2ccccn2c1=O please.
156 to 158 °C

Ok, now COn1c(C)nc(N2CCc3ccccc3CC2)c(C#N)c1=O
144 to 145 °C

// same read-out, input: CCN(c1cccc(C(=O)Nc2cc(NC(=O)c3cccc(N4CCOCC4)c3)ccc2C)c1)S(C)(=O)=O
192 to 193 °C

One more compound: Cc1cccc(NP(N)(N)=O)c1
159 to 162 °C

How about this compound: Cc1ncc2c(=O)n(C)c(=O)n(C)c2n1
113 to 115 °C
